target: TrkA receptor (Homo sapiens); assay: Phospho-TrkA (Tyr674/675) ELISA: activation of TrkA receptor by NGF in SH-SY5Y cells; conditions: 24 hrs exposure, FIG. 9
Sequence (P04629 33-796): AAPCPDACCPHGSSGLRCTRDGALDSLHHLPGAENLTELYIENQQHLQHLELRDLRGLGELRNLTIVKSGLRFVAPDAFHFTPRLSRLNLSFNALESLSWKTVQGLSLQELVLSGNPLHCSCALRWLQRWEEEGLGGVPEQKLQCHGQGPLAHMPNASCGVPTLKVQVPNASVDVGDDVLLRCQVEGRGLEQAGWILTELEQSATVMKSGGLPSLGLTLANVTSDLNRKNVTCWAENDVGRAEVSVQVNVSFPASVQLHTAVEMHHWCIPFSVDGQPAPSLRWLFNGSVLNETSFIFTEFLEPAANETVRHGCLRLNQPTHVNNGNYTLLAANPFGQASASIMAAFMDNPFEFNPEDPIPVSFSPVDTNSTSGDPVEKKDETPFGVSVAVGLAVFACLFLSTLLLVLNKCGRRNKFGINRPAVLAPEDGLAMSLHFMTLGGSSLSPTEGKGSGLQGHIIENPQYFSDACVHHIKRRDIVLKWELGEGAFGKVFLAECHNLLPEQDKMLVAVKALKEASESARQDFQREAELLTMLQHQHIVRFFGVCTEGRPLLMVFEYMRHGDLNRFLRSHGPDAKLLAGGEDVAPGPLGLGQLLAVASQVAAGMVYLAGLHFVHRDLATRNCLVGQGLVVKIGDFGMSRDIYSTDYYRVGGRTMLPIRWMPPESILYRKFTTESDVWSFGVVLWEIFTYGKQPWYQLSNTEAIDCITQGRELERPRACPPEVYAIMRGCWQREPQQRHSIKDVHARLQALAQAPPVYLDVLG
pIC50: −log10 of the molar value.
Consider the following compounds; for each one, report its pIC50.

Summary for this compound, O=C(O)CSCC(=O)N[C@H]1CCSC1=O [Erdo S] : pIC50 is 7.00 to 9.00

Summary for this compound, O=C(O)CSCC(=O)NC1CCSC1=O (racemic) [erdosteine, reference compound] : pIC50 is 3.00 to 3.30

----------
test: Solubility of the test substances; type: physicochemical; details: 37 °C, aqueous buffer; MEM, warming 20 minutes at 37°
reportedEndpoint: solubility at 20 min (mg/mL)
# value in mg/mL; strip the unit string

Summary for this molecule, O=C(O)CSCC(=O)NC1CCSC1=O (racemic) [erdosteine, reference compound] : solubility at 20 min is 11

----------
test: Solubility of the test substances; type: physicochemical; conditions: water
reportedEndpoint: solubility (mg/mL)
# value in mg/mL; strip the unit string

Summary for this compound, O=C(O)CSCC(=O)NC(CCS)C(=O)O (stereo not shown) : solubility is 164
